Record form. Attribute: furin cleavage Z-score. Fill in for each entry.
tested.on: furin, P09958
Sequence (P09958 whole entry): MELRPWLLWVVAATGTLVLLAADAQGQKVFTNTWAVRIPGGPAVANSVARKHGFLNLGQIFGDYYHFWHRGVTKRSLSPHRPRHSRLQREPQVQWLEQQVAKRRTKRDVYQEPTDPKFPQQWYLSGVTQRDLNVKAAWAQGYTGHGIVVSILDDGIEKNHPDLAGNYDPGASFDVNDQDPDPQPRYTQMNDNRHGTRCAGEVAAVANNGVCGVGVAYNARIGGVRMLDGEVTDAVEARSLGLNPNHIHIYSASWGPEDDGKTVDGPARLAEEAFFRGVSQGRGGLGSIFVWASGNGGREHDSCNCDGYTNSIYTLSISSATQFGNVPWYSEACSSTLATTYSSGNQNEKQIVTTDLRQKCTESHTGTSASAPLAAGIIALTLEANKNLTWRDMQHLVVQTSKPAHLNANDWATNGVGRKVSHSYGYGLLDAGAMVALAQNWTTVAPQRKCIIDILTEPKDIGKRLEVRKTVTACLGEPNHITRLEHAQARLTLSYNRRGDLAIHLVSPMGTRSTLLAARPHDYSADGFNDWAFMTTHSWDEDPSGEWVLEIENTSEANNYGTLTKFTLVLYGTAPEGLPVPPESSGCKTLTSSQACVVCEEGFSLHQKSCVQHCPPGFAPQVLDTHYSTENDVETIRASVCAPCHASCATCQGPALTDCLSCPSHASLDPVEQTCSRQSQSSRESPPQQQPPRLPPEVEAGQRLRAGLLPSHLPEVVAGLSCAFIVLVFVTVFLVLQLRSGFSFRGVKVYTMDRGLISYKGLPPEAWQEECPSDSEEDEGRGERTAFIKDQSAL
test.details: furin cleavage Z-score vs untreated control; higher = more cleavage, active = 3.5 or more, inactive = 1 or less, 8 variable residues between constant flanks;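 note: purified furin at 1:10 enzyme:substrate in 50 mM HEPES pH 7.5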
measurement.parameters: 15 min
The other results are listed elsewhere or left out. No count for the full screen is at hand.
Give bare numbers.

The examples below pair each entry with its known result.
{"columns": ["ordered.residues", "furin cleavage Z-score"],
 "data": [
  ["CARQRRAAKGAGNASASA [FS-3230]", 8.24],
  ["CARQRRAAGGAGNASASA [FS-2588]", 2.03],
  ["CARTKRYFAKAGNASASA [FS-1976]", 1.7]
]}

Lab note: each sequence below needs its furin cleavage Z-score filled in.
1. CALWILQASLAGNASASA [HC610]
2. CADTERKRRHAGNASASA [FS-411]

[2.88, 11]
